Molecular target: HLA-B*40:01
Experiment: IEDB peptide-MHC binding, purified MHC/direct/fluorescence; filed as Kd, often an IC50 or EC50 that approximates it; bounds were set here for any values at or beyond the usual limits of such assays
Conditions: source organism: Amur virus
measured_property: Kd (nM)
Kindly answer with a numeric value in nM, unit omitted.

What the record says about SEGGIFNIT : Kd is 813

----------
Molecular target: HLA-C*06:02
Assay: IEDB peptide-MHC binding, purified MHC/competitive/fluorescence; filed as Kd, often an IC50 or EC50 that approximates it; bounds were set here for any values at or beyond the usual limits of such assays
Details: source organism: Coxiella burnetii Dugway 5J108-111
measured_property: Kd (nM)
Kindly answer with a numeric value in nM, unit omitted.

What the record says about MTFPVSLEY : Kd is 39.6
